Cited source for all entries: patent EP0195147A1

experiment: Solubility; assay type: physicochemical; conditions: 1% sodium bicarbonate solution; read-out: soluble in 1% sodium bicarbonate solution to the extent of

{"columns": ["Smiles Notation", "solubility (mg/mL)"],
 "data": [
  ["O=C(O)Cc1ccc[n+]([Au-]([Br])([Br])[Br])c1", 12.8],
  ["O=C(O)c1ccc[n+]([Au-]([Cl])([Cl])[Cl])c1", 12.8],
  ["O=C(O)c1ccc[n+]([Au-]([Br])([Br])[Br])c1", 12.8],
  ["O=C(O)Cc1ccc[n+]([Au-]([Cl])([Cl])[Cl])c1", 12.8]
]}

* * *

test system: S 180 ascites; test: Anti-tumor screening against S 180 ascites (% increase in life span); type: in vivo, female CFW Swiss mice; settings: Dose 160 mg/kg; survivors on day of evaluation (twice the mean life span of the control)
// Survivors lookup, one value per entry

{"columns": ["Smiles Notation", "Tgt", "Survivors"],
 "data": [
  ["O=C(O)c1ccc[n+]([Au-]([Cl])([Cl])[Cl])c1", "S 180 ascites", "0 of 6"],
  ["O=C(O)Cc1ccc[n+]([Au-]([Cl])([Cl])[Cl])c1", "S 180 ascites", "0 of 6"],
  ["[Cl][Au-]([Cl])([Cl])[n+]1cc[nH]c1", "S 180 ascites", "2 of 6"]
]}
